These data points were gathered from ChEMBL document CHEMBL1138734.

Target: Acetylcholinesterase (Homo sapiens)
Sequence (P22303 whole entry): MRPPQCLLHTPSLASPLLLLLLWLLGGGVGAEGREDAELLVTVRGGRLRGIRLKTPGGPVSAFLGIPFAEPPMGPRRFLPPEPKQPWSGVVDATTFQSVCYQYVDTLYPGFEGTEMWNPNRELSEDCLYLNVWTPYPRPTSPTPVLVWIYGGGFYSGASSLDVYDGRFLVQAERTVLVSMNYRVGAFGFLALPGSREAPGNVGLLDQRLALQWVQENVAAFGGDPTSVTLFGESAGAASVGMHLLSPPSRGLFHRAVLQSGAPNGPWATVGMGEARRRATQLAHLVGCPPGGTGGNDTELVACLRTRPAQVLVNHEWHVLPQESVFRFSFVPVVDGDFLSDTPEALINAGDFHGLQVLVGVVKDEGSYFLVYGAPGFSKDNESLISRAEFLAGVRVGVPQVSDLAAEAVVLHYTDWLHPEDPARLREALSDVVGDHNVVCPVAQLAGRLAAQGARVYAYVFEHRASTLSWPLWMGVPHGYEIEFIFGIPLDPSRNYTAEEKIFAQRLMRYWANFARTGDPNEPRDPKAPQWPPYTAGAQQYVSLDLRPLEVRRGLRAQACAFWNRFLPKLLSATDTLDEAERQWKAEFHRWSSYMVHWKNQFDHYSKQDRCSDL
Assay: Inhibitory activity against of human erythrocyte acetylcholinesterase
endpoint-label: IC50 (µM)
Numbers only, in µM.

Query NC1=C2CCCCC2=NC2CCCCC12 (stereo unspecified) yields IC50 of 0.363

* * *

Biological target: Acetylcholinesterase (Bos taurus, UniProt P23795)
Sequence (P23795 whole entry): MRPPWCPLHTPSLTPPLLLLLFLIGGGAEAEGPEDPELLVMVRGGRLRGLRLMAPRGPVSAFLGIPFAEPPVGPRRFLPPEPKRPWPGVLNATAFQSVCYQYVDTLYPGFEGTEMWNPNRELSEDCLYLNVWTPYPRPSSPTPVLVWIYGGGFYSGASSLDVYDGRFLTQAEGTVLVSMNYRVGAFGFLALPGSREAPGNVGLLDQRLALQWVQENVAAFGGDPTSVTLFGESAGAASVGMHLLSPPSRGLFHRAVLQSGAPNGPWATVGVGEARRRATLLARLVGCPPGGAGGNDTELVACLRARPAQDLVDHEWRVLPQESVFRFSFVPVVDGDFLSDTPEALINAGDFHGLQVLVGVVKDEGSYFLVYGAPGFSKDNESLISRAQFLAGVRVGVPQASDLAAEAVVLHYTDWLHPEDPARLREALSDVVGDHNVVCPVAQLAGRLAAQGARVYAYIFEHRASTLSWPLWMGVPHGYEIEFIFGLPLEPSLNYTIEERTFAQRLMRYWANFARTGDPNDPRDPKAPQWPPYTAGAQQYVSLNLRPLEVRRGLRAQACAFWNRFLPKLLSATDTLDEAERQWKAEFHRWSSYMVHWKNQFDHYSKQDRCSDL
endpoint-label: IC50 (nM)
Numbers only, in nM.

Assay Acetylcholinesterase (Bos taurus, UniProt P23795), sample CCC1=CC2Cc3nc4cc(Cl)ccc4c(N)c3C(C1)C2 (stereo unspecified) , IC50 read: 1.29
